Assay: in vivo
Conditions: C57BL/6, mouse, po, 100 mg/kg, AUCInf, Compound P3 in plasma, PO 100 mg/kg (PO_B), C57BL/6 mice, Mean n = 3
recorded endpoint: AUC(0-inf) (ng·h/mL)
Give just the numeric value; ng·h/mL need not be written.

Any idea what AUC(0-inf) was measured for "O=C(Nc1ccc([N+](=O)[O-])cc1Cl)c1cc(Cl)ccc1OC(=O)N1CCNCC1" ?
38100

---

Assay: Pharmacokinetics in male hamsters, plasma and lung, IV 3 mg/kg or PO 30 mg/kg
Conditions: male, hamster, in vivo, iv, 3 mg/kg, Ratio (Lung/Plasma), Compound P3 IV 3 mg/kg, 4 h, individual animals
recorded endpoint: Kp at 4 h
Enter a number only.

Any idea what Kp at 4 h was measured for "O=C(Nc1ccc([N+](=O)[O-])cc1Cl)c1cc(Cl)ccc1OC(=O)N1CCNCC1" ?
68.4
